tgt: Oxysterols receptor LXR-beta (Homo sapiens)
Sequence (P55055 whole entry): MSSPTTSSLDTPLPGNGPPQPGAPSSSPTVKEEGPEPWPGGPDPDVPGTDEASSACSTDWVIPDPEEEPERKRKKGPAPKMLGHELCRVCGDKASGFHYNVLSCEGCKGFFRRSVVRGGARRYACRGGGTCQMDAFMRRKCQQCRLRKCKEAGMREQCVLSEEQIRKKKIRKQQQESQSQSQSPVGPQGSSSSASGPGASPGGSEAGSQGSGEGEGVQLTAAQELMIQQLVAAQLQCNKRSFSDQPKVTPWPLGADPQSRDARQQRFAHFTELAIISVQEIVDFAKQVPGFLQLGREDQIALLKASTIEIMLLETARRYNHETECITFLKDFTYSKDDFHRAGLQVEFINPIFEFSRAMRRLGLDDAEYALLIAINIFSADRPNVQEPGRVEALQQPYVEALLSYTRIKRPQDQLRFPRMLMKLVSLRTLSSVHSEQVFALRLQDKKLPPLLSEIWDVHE
Format: functional, cell-based
Activity calls are given as the source filed them.
quantity: EC50

{"moleculeSmiles": "Cc1cc(C(=O)CSc2cccc[n+]2[O-])c(C)n1-c1ccccc1", "tgt": "Oxysterols receptor LXR-beta (Homo sapiens)", "quantity": "EC50", "assayResult": "> 67.5 µM (inactive)"}

Exam item: Input O=c1c2ccccc2nnn1CCc1ccccc1 , output reported EC50.
Marked response: > 67.4 µM (inactive)

Exam item: Input N=C1/C(=C/c2ccc(OCc3ccccc3F)cc2)C(=O)N=C2SC(CC(=O)N3CCOCC3)=NN12 , output reported EC50.
Marked response: > 67.5 µM (inactive)

Exam item: Input Brc1ccc(-c2noc(-c3ccccc3)n2)o1 , output reported EC50.
Marked response: > 67.6 µM (inactive)

====

tgt: UniProtKB Q9XUB2
Sequence (Q9XUB2 whole entry): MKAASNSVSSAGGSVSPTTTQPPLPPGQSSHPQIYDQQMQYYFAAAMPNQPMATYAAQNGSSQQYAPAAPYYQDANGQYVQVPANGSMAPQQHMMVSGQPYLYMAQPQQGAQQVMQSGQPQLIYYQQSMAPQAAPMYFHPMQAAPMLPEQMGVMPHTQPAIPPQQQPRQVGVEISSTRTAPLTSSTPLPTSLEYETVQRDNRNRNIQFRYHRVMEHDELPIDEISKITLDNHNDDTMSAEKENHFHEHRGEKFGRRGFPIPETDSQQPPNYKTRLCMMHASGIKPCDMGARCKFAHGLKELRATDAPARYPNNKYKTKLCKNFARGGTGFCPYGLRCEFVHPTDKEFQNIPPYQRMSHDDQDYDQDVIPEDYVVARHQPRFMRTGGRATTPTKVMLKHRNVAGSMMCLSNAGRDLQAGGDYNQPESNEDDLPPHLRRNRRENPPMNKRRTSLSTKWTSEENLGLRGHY
assayProtocol: potency of MEX-5 RNA-binding blockers – biochemical, C. elegans, fluorescence polarization, dose response (AID 1960)
Active and inactive are the calls of the source.
Reported EC50 values for the following molecules.

Exam item: Jot down EC50 (UniProtKB Q9XUB2) of O=C(NN1C(=O)c2ccccc2NC1c1ccccn1)c1ccc([N+](=O)[O-])cc1 (centres undefined) .
Marked response: 8.55 µM (active)

Exam item: Jot down EC50 (UniProtKB Q9XUB2) of O=C(O)CC(C(=O)O)N1C(=O)/C(=C/C=C/c2ccco2)SC1=S (centres undefined) .
Marked response: 23.3 µM (active)

Exam item: Jot down EC50 (UniProtKB Q9XUB2) of N=c1c(C(=O)NC2CCCC2)cc2c(=O)n3ccccc3nc2n1Cc1ccccc1 .
Marked response: 41.3 µM (active)

Exam item: Jot down EC50 (UniProtKB Q9XUB2) of Oc1ccc(C2=CSC3=NCCN23)cc1O .
Marked response: 18.6 µM (active)

====

Reported EC50 values for the following compounds.
tgt: RNA-binding protein pos-1 (Caenorhabditis elegans)
Sequence (G5EF15 whole entry): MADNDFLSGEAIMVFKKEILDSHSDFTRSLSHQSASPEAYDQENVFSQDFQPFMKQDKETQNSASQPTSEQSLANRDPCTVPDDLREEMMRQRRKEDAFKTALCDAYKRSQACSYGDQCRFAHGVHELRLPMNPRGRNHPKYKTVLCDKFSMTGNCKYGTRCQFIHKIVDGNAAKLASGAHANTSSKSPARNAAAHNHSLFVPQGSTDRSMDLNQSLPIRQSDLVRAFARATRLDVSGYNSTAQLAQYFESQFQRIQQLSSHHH
assayProtocol: disruptors of C. elegans POS-1 RNA interaction – biochemical, fluorescence polarization, dose response (AID 1964);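 further: purified POS-1 fused to maltose binding protein made in E. coli; potency of compounds blocking POS-1 binding to fluorescent RNA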
Calls of active or inactive are those of the source.

{"compound": "Cc1cc(C)nc(NNC2=CC(=O)CC(C)(C)C2)n1", "EC50": "84.6 µM (active)"}

Consider the additional compound presented here.
Exam item: Jot down EC50 (RNA-binding protein pos-1 (Caenorhabditis elegans)) of CCCn1cc2c3c(cccc31)C1CC(C)CN(C)C1C2 (centres undefined) .
Marked response: 36 µM (active)

====

Reported AC50 values for the following compounds.
assayProtocol: blockers of HIV-1 ZM109 envelope-driven cell-cell fusion – HeLa effector, CEM target cells, luciferase, cherry-pick, dose response (AID 652058);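 further: luciferase signal from HIV-1 Env mediated cell-cell fusion of effector and target cells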
Format: functional, cell-based
Calls of active or inactive are those of the source.

{"compound": "CCN1C(=O)[C@H]2[C@@H](c3ccc(C)cc3)N3C(=O)N(c4cccc(Cl)c4)C(=O)[C@@]3(CC)[C@H]2C1=O", "AC50": "2.06 µM (active)"}
{"compound": "CC1(C)N=C(N)N=C(N)N1CCCCc1ccccc1", "AC50": "1.34 µM (active)"}
{"compound": "C[C@H]1CN([C@@H](C)CO)S(=O)(=O)c2ccc(Br)cc2O[C@H]1CN(C)Cc1ccccc1", "AC50": "20.6 µM (active)"}

Consider the additional compound presented here.
Exam item: Input CCCC(=O)NC(c1cccs1)c1cc(Cl)c2cccnc2c1O (centres undefined) , output reported AC50.
Marked response: 15 µM (active)

====

assayProtocol: cells
Assay type: functional, cell-based
Activity calls are given as the source filed them.
Reported EC50 values for the following molecules.

Example cases with answers are listed next.
{"molecule": "Cc1ccccc1-c1nc2ccccc2c(=O)n1/N=C/c1ccccc1[N+](=O)[O-]", "assayResult": "> 350 µM (not active)"}
{"molecule": "COc1ccc(N(CC(=O)Nc2cc(OC)ccc2OC)S(=O)(=O)c2c(C)noc2C)cc1", "assayResult": "> 350 µM (not active)"}
{"molecule": "Cc1cccc(C(=O)OC(C)CN2CCCC2)c1 (stereo not given)", "assayResult": "> 350 µM (not active)"}
{"molecule": "CCCC(=O)NC(c1cccs1)c1cc(Cl)c2cccnc2c1O (stereo not given)", "assayResult": "24.4 µM (active)"}

Consider the additional molecule presented here.
Exam item: Input Cc1ccccc1NC(=O)c1ccccc1O , output reported EC50.
Marked response: > 350 µM (not active)

====

Reported IC50 values for the following compounds.
tgt: Genome polyprotein (dengue virus type 2, UniProt P29990)
assayProtocol: flavivirus cap methylation enzyme inhibition – biochemical, confirmation dose response, primary screen (AID 588689)
Format: functional
Activity calls are given as the source filed them.

Example cases with answers are listed next.
{"compound": "Cc1cc(C)cc(OCCOc2cccc(C=C3C(=O)NC(=O)NC3=O)c2)c1", "tgt": "Genome polyprotein (dengue virus type 2, UniProt P29990)", "assayResult": "46.9 µM (active)"}
{"compound": "Cc1ccc(S(=O)(=O)N2[C@@H](c3cccc(Cl)c3)C(C(=O)O)=CC[C@H]2c2cccc(Cl)c2)cc1", "tgt": "Genome polyprotein (dengue virus type 2, UniProt P29990)", "assayResult": "48.3 µM (active)"}

Consider the additional compound presented here.
Exam item: Input CCc1c(C)[nH]n(-c2ccc(Oc3ccccc3)c(S(=O)(=O)O)c2)c1=O , output reported IC50.
Marked response: 84.5 µM (active)

====

tgt: Protein skinhead-1 (Caenorhabditis elegans, UniProt P34707)
Sequence (P34707 whole entry): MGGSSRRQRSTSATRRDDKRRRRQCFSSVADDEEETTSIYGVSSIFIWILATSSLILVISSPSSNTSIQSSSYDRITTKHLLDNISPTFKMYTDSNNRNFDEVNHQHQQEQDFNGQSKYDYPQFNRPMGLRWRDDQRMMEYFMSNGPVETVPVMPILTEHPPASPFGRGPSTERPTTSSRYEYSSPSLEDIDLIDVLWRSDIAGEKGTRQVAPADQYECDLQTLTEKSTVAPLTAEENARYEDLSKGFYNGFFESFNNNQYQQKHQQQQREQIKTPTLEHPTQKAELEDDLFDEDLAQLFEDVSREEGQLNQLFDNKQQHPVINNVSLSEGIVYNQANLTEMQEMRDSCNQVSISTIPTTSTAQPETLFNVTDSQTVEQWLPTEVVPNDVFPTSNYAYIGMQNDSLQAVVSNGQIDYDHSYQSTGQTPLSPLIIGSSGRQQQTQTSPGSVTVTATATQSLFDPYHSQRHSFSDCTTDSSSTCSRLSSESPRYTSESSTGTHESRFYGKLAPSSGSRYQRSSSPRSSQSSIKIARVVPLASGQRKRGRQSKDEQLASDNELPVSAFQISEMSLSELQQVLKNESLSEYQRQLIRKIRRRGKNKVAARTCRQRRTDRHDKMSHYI
Type: functional
Calls of active or inactive are those of the source.
// one of active, inactive, no free text

{"compound": "COc1ccc(OC)c(C(=O)C2COC(=O)C2)c1 (stereo not drawn)", "tgt": "Protein skinhead-1 (Caenorhabditis elegans, UniProt P34707)", "categoryLabel": "inactive"}

Exam item: Give the logged outcome of this assay for the following compound: Brc1ccc(-c2noc(-c3ccccc3)n2)o1
Marked response: inactive

Exam item: Give the logged outcome of this assay for the following compound: O=C(Nc1ccccc1)O/N=C/c1ccc(F)cc1
Marked response: inactive

Exam item: Give the logged outcome of this assay for the following compound: Nc1ccc2c(c1)sc1ccccc12
Marked response: active

Exam item: Give the logged outcome of this assay for the following compound: N#C/C(=C\c1ccc(Cl)cc1Cl)c1n[nH]c(Cn2cncn2)n1
Marked response: inactive

Exam item: Give the logged outcome of this assay for the following compound: O=C(Nc1ccc(Cl)c(Cl)c1)c1ccccc1
Marked response: inactive

Exam item: Give the logged outcome of this assay for the following compound: N#CC1=C(N)N(c2ccc(F)cc2)C2=C(C1c1ccc(O)cc1)S(=O)(=O)CC2 (stereo not drawn)
Marked response: inactive

Exam item: Give the logged outcome of this assay for the following compound: CCN(c1ccccc1)S(=O)(=O)c1cccc(C(=O)Nc2ccc(C)cn2)c1
Marked response: inactive

====

tgt: Coagulation factor XII (Homo sapiens, UniProt P00748)
Assay type: functional
The source made the active and inactive calls.
// one of active, inactive, no free text

{"compound": "CC1(C)Oc2ccc(C(=O)NC3CCCC3)cc2N(CC(=O)NC2CCCC2)C1=O", "categoryLabel": "inactive"}
{"compound": "CCOCC(=O)Nc1ccc(S(=O)(=O)Nc2ncccn2)cc1", "categoryLabel": "inactive"}
{"compound": "O=C(Oc1ccc2ccc(=O)oc2c1)c1cccs1", "categoryLabel": "active"}

Exam item: Give the logged outcome of this assay for the following compound: CC1CCCN(C(=O)C2CCCN(S(=O)(=O)c3cccc4nsnc34)C2)C1 (centres undefined)
Marked response: inactive

====

Reported IC50 values for the following compounds.
tgt: 26S proteasome non-ATPase regulatory subunit 14 (Homo sapiens, UniProt O00487)
Sequence (O00487 whole entry): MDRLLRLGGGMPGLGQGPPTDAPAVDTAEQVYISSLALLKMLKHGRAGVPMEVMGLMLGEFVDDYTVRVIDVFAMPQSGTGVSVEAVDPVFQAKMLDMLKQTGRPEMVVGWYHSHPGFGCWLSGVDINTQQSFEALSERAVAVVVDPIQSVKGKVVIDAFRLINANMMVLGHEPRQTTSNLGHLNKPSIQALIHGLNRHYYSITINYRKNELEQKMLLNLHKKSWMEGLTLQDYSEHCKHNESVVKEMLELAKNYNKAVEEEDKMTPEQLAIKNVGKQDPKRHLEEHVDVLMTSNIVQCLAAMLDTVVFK
assayProtocol: inhibition of proteasome subunit RPN11 – biochemical, fluorescence polarization, uHTS hits, confirmation (AID 602368)
Assay type: functional
Calls of active or inactive are those of the source.

Example cases with answers are listed next.
{"compound": "Cc1sc2nc(CSCC(=O)Nc3ccccc3C#N)[nH]c(=O)c2c1C", "quantity": "IC50", "assayResult": "6.2 µM (active)"}
{"compound": "O=C(CC1OC(=O)c2ccccc21)Nc1cc(Cl)ccc1N1CCCC1 (stereo not given)", "quantity": "IC50", "assayResult": "14.1 µM (active)"}
{"compound": "COC(=O)c1ccc(COc2ccc(/C=C(\\C#N)c3nc4ccccc4[nH]3)cc2OC)o1", "quantity": "IC50", "assayResult": "4.93 µM (active)"}
{"compound": "C#CCn1/c(=N/C(=O)c2cccs2)sc2cccc(OC)c21", "quantity": "IC50", "assayResult": "24.9 µM (active)"}

Consider the additional compound presented here.
Exam item: Input Cc1cccc2sc(NC(=O)C3CCCN(S(=O)(=O)c4cccc5nonc45)C3)nc12 (stereo not given) , output reported IC50.
Marked response: 25.9 µM (active)
